src = the RNAGym collection of RNA variant scans (doi:10.7554/elife.80360)

B1: Twister Ribozyme (parent)
chain: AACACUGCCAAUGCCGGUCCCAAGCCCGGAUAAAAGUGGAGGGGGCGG

# Variants of: B1
# procedure.details: self-cleavage, relative activity (ratio to wild type); higher = more cleavage; co-transcriptional
Entries and their self-cleavage values follow.
Provide a numeric answer; units are not to be included.

# mutation.spec, obs.value
rows = [
    ("A11C G13U", 0.0589),
    ("A4G G47C", 0.386),
    ("C8G C46U", 0.424),
    ("A1U C46A", 0.0731),
    ("C5G U18A", 0.104),
    ("C15U G28A", 1.14),
    ("G29C G48A", 0.56),
    ("G36A G43A", 0.14),
]

Look up and state reported self-cleavage for C8U U18A 0.0657

Look up and state reported self-cleavage for A1G C9A 0.226

Look up and state reported self-cleavage for U37G G39A 0.126

Look up and state reported self-cleavage for C9A U37C 0.16

Look up and state reported self-cleavage for A23G C26G 0.107

Look up and state reported self-cleavage for G28A G43U 0.326

Look up and state reported self-cleavage for A11C A40G 0.12

Look up and state reported self-cleavage for G13U G39C 0.11

Look up and state reported self-cleavage for A10U U12A 0.986

Look up and state reported self-cleavage for G16A C21G 0.0789

Look up and state reported self-cleavage for C21U G29U 0.0831

Look up and state reported self-cleavage for U31G A40G 0.0918

Look up and state reported self-cleavage for C21U C27G 0.0722

Look up and state reported self-cleavage for G16C G24C 0.0655

Look up and state reported self-cleavage for C5U G44C 0.864

Look up and state reported self-cleavage for U12C C21U 0.0795

Look up and state reported self-cleavage for A4C U18G 0.111

Look up and state reported self-cleavage for A1G G28A 0.406
